Data credit: patent US20160362487A1

# SYSTEM_UNDER_TEST: T1, pre-formed complex of hIL-33 and captured hST2-MMH (human, UniProt O95760 112-270)
# T1 construct: Ligand-receptor complex on the sensor: hST2-MMH captured by anti-myc mAb and saturated with 100 nM hIL-33; also called hIL-33 pre-complexed with hST2-MMH
# EXPERIMENTAL_PROTOCOL: SPR 25C, 100 nM mAb over hIL-33/hST2-MMH complex
OBSERVATION_TYPE: Antibody Binding Response (RU)
Value expressed in RU; do not type the unit.

# count of solved cases: 6
# BINDER, OUTPUT_UNIT, Antibody Binding Response (RU)
rows = [
    ("H1M9566N (antibody, mouse IgG1, V domains shown, Human variable domains, mouse IgG1 Fc (H1M)) VH: EVQLLESGGDLVQPGGSLRLSCAASGFTFSSYAMSWVRQAPGKGLEWVSVISGSGSSTDYADSVKGRFTISRDNSRDTLHLQMNSLRAEDTAVYYCAKTFYYFYGLDVWGQGTTVTVSS VL: DIQMTQSPSSLSASLRDRVTITCRASQGISNYLAWYQQKPGKVPKVLIYAASTLQSGVPSRFSGSGSGTVFTLTISSLQTEDVATYYCQKYSSAPFTFGPGTKVDIK", "RU", 13),
    ("H4H9640P (antibody, human IgG4, V domains shown, Human IgG4 Fc (H4H)) VH: QVQLQESGPGLVKPSETLSLTCTVSGGSISSYYWSWIRQPPGKGLELIGYIYYSGSTNYNPSLKSRVTISVDTSKNHFSLKLSSVTAADTAVYYCARSQYTSSWYGSFDIWGQGTMVTVSS VL: DIQMTQSPSSVSASVGDRVTITCRASQGISTWLAWFQQKPGKAPKLLIYAASTLQGGVPSRFSGSGSGPEFTLTISSLQPEDFATYYCQQANSFPWTFGQGTKVEIK", "RU", -1),
    ("H4H9664P (antibody, human IgG4, V domains shown, Human IgG4 Fc (H4H)) VH: QVQLVESGGGVVQPGRSLRLSCAASGFTFSSYGLHWVRQSPGKGLEWVALISYDGSNKYYADSVKGRFTISRDNSKNTLYLQMNSLRPEDTAGYFCAKSLYTTSWYGGFDYWGQGTLVTVSS VL: DIQMTQSPSSVSASVGDRVTITCRASQGIRSWLAWYQQKPGKAPNLLIYAASSLQSGVPSRFSGSGSGTDFTLTISSLQPEDFATYYCQQANSFPPTFGPGTKVDIK", "RU", -1),
    ("H1M9568N (antibody, mouse IgG1, V domains shown, Human variable domains, mouse IgG1 Fc (H1M)) VH: QVLLVQSGAEVKKPGATVKVSCKASGSTFTGYYMHWVRQAPGQGLEWMGWINPNNGGTNYAQKFQGRVTMTRDTSISTAYMELSRLRSDDTAVYYCARELRYNWKSWGQGTLVTVSS VL: EIVLTQSPGTLSLSPGERVTLSCRASQSVGRPYLAWYQQIPGQAPRLLIYGASSRATDIPDRFSGNGSGTDFTLTISRLEPEDFAVYYCQQYDNSPYTFGQGTRLEIK", "RU", 131),
    ("H4H9663P (antibody, human IgG4, V domains shown, Human IgG4 Fc (H4H)) VH: QVQLVQSGAEVKKPGASVKVSCKASGYTFTGHYMYWMRQAPGQGLEWMGWINPNSGGTNYAQKFQDRVTMTRDTSISTAYMELSRLRSDDTAVYYCARGRYGSSWYGGFEYWGQGTLVTVSS VL: DIQMTQSPSSVSASVGDRVTITCRASQGITSWLAWYQQKPGKAPNLLIYAAASLQSGVPSRFSGSGSGTDFTLTISSLQPEDFTTYYCQQAYSLPLTFGGGTKVEIK", "RU", -1),
    ("H1M9559N (antibody, mouse IgG1, V domains shown, Human variable domains, mouse IgG1 Fc (H1M)) VH: QVQLVESGGGVVQPGRSLRLSCAASGFTFSSYGMHWVRQAPGKGLEWVAVIWYDGRNKYYTDSVKGRFTISRDNSKNTLYLQMDSLRAEDTAVYYCARERYISSYYGGFDPWGQGALVTVSS VL: DIQMTQSPSSVSASVGDRVTITCRASQGISSWLAWYQQKPGKAPKVLIYAASSLQSGVPSRFSGSGSGTDFTLTISSLQPEDFATYYCQQANSFPFTFGPGTKLDIK", "RU", -4),
]

Enquiry: Would you kindly share the measured Antibody Binding Response (RU) for H4H9662P (antibody, V domains shown, Human IgG4 Fc (H4H)) VH: EVQLVESGGGLVQPGGSLRLSCAASGFTFSSYALTWVRQAPGKGLEWVSFISGSGGRPFYADSVKGRFTISRDNSKNMLYLQMNSLRAEDTAIYYCAKSLYTTSWYGGFDSWGQGTLVTVSS VL: DIQMTQSPSSVSASVGDRVTITCRASQGVVSWLAWYQQKPGKAPKLLIYAASSLQSGVPSRFSGSGSGTDFTLTISSLQPEDFATYYCQQSNSFPFTLGPGTKVDIK ?
Return: 0

Enquiry: Would you kindly share the measured Antibody Binding Response (RU) for H4H9671P (antibody, human IgG4, V domains shown, Human IgG4 Fc (H4H)) VH: EVQLVESGGGLVQPGGSLRLSCAASGFTLRSYFMTWVRQVPGKGLEGVSAISGISGGTYYTDSVKGRFTISRDNSKNTLFLQMNSLRAEDTAVYFCARTVYSSSYYGGFQHWGQGTLVTVSS VL: DIQMTQSPSSVSVSVGDRVTITCRASQGISSWLAWYQQKPGKAPKLLIYVASSLQSGVPSRFSGSGSGTDFTLTISSLQPEDFATYYCQQTNSFPLTFGGGTKVEIK ?
Return: -1

Enquiry: Would you kindly share the measured Antibody Binding Response (RU) for H4H9665P (antibody, human IgG4, V domains shown, Human IgG4 Fc (H4H)) VH: EVQLVESGGGLVQPGGSLRLSCAASGFTFSNYAMTWVRQAPGKGLEWVSTISGSGDNTYYADSVQGRFTISRGHSKNTLYLQMNSLRAEDTAVYYCAKPTYSRSWYGAFDFWGQGTMVTVSS VL: DIQMTQSPSSVSASVGDRVTITCRASQGISSWLAWYQQKPGKAPQLLIYAASRLQSGVPSRFWGSGSGTDFTLTISSLQPEDFATYYCQQANNFPFTFGPGTKVDIK ?
Return: 0

Enquiry: Would you kindly share the measured Antibody Binding Response (RU) for H4H9629P (antibody, human IgG4, V domains shown, Human IgG4 Fc (H4H)) VH: EVQLVESGGGLVQPGGSLRLSCAASGFTFRSFAMSWVRQAPGKGLELVSDLRTSGGSTYYADSVKGRLTISRDNSKNTLYLQMNSLRAEDTAVYYCAKSHYSTSWFGGFDYWGQGTLVTVSS VL: DIQMTQSPSSVSASVGDRVTITCRASQGFSSWLAWYQQKPGKAPKLLIYAASSLQSGVPSRFSGSGSGTDFTLTITNLQPEDFATYYCQQANSFPLTFGGGTKVEIK ?
Return: -1
